System: ICR mice
Assay: Acute toxicity experiment of single oral administration in mice
Assay type: in vivo
Conditions: Day 1; female; 1000 mg/Kg single oral dose
RECORDED_METRIC: Daily Body Weight of Tested Female Mice (Mean ± SD) (g)

{"MOLECULE": "CCOCCN1C(=O)CCC(N2C(=O)c3cccc(N)c3C2=O)C1=O (stereo not shown)", "MEASUREMENT": 18.0}
{"MOLECULE": "COCCCN1C(=O)CCC(N2C(=O)c3cccc(N)c3C2=O)C1=O (stereo not shown)", "MEASUREMENT": 18.0}
{"MOLECULE": "COCCN1C(=O)CCC(N2C(=O)c3c(N)ccc(O)c3C2=O)C1=O (stereo not shown)", "MEASUREMENT": 19.2}
{"MOLECULE": "CNc1cccc2c1C(=O)N(C1CCC(=O)N(CCOC)C1=O)C2=O (stereo not shown)", "MEASUREMENT": 19.2}
{"MOLECULE": "CS(=O)(=O)CCN1C(=O)CCC(N2C(=O)c3cccc(N)c3C2=O)C1=O (stereo not shown)", "MEASUREMENT": 18.8}
{"MOLECULE": "COCCN1C(=O)CCC(N2C(=O)c3cccc(O)c3C2=O)C1=O (stereo not shown)", "MEASUREMENT": 19.1}
{"MOLECULE": "C[S+]([O-])CCN1C(=O)CCC(N2C(=O)c3cccc(N)c3C2=O)C1=O (stereo not shown)", "MEASUREMENT": 18.7}
{"MOLECULE": "COCCCCN1C(=O)CCC(N2C(=O)c3cccc(N)c3C2=O)C1=O (stereo not shown)", "MEASUREMENT": 18.5}
{"MOLECULE": "CCOCCN1C(=O)CCC(N2C(=O)c3cccc(F)c3C2=O)C1=O (stereo not shown)", "MEASUREMENT": 18.7}
{"MOLECULE": "COCCCN1C(=O)CCC(N2C(=O)c3cccc(F)c3C2=O)C1=O (stereo not shown)", "MEASUREMENT": 18.6}
{"MOLECULE": "COCCN1C(=O)CCC(N2C(=O)c3cccc(NC(C)=O)c3C2=O)C1=O (stereo not shown)", "MEASUREMENT": 18.5}
{"MOLECULE": "COCCCN1C(=O)CCC(N2C(=O)c3ccc(N)cc3C2=O)C1=O (stereo not shown)", "MEASUREMENT": 18.4}
{"MOLECULE": "Nc1cccc2c1C(=O)N(C1CCC(=O)N(CCO)C1=O)C2=O (stereo not shown)", "MEASUREMENT": 17.5}
{"MOLECULE": "CSCCN1C(=O)CCC(N2C(=O)c3cccc(N)c3C2=O)C1=O (stereo not shown)", "MEASUREMENT": 18.1}
{"MOLECULE": "COCCN1C(=O)CCC(N2C(=O)c3cccc(F)c3C2=O)C1=O (stereo not shown)", "MEASUREMENT": 18.4}
{"MOLECULE": "COCCN1C(=O)CCC(N2C(=O)c3cccc(C)c3C2=O)C1=O (stereo not shown)", "MEASUREMENT": 18.4}

* * *

Test system: ICR mice
Test: Acute toxicity experiment of single oral administration in mice
Type: in vivo
Conditions: Day 5; female; 1000 mg/Kg single oral dose
RECORDED_METRIC: Daily Body Weight of Tested Female Mice (Mean ± SD) (g)

{"COMPOUND": "COCCN1C(=O)CCC(N2C(=O)c3cccc(NC(C)=O)c3C2=O)C1=O (stereo not shown) [Example 1]", "UNITS": "g", "MEASUREMENT": 25.3}
{"COMPOUND": "COCCCN1C(=O)CCC(N2C(=O)c3ccc(N)cc3C2=O)C1=O (stereo not shown) [Example 18]", "UNITS": "g", "MEASUREMENT": 24.8}
{"COMPOUND": "COCCCN1C(=O)CCC(N2C(=O)c3cccc(N)c3C2=O)C1=O (stereo not shown) [Example 26]", "UNITS": "g", "MEASUREMENT": 22.7}
{"COMPOUND": "CNc1cccc2c1C(=O)N(C1CCC(=O)N(CCOC)C1=O)C2=O (stereo not shown) [Example 2]", "UNITS": "g", "MEASUREMENT": 24.4}
{"COMPOUND": "COCCN1C(=O)CCC(N2C(=O)c3cccc(F)c3C2=O)C1=O (stereo not shown) [Example 4]", "UNITS": "g", "MEASUREMENT": 24.7}
{"COMPOUND": "COCCCN1C(=O)CCC(N2C(=O)c3cccc(F)c3C2=O)C1=O (stereo not shown) [Example 17]", "UNITS": "g", "MEASUREMENT": 23.0}
{"COMPOUND": "COCCCCN1C(=O)CCC(N2C(=O)c3cccc(N)c3C2=O)C1=O (stereo not shown) [Example 22]", "UNITS": "g", "MEASUREMENT": 25.0}

* * *

Tested on: DSS-Induced inflammatory Bowel Disease Models in Mice
Assay: DSS-induced inflammatory bowel disease model in mice (Biological Example 5, 1.3% DSS)
Format: in vivo, C57BL/6 mice
Settings: 30 mg/Kg i.g. Q.D; 1.3% DSS days 0-5

{"COMPOUND": "COCCCN1C(=O)CCC(N2C(=O)c3cccc(F)c3C2=O)C1=O (stereo not drawn) [Example 17]", "Length (cm, Mean ± SD) of colon [cm]": 7.0}
{"COMPOUND": "COCCN1C(=O)CCC(N2C(=O)c3ccc(OC)c(N)c3C2=O)C1=O (stereo not drawn) [Example 25]", "Length (cm, Mean ± SD) of colon [cm]": 6.7}
{"COMPOUND": "CCOCCN1C(=O)CCC(N2C(=O)c3cccc(F)c3C2=O)C1=O (stereo not drawn) [Example 20]", "Length (cm, Mean ± SD) of colon [cm]": 6.9}

* * *

Test system: ICR mice
Assay: Acute toxicity experiment of single oral administration in mice
Type: in vivo
Conditions: Day 7; male; 1000 mg/Kg single oral dose
RECORDED_METRIC: Daily Body Weight of Tested Male Mice (Mean ± SD) (g)

{"COMPOUND": "C[S+]([O-])CCN1C(=O)CCC(N2C(=O)c3cccc(N)c3C2=O)C1=O (stereo not shown)", "MEASUREMENT": 28.5}
{"COMPOUND": "COCCCN1C(=O)CCC(N2C(=O)c3cccc(F)c3C2=O)C1=O (stereo not shown)", "MEASUREMENT": 29.3}
{"COMPOUND": "Nc1cccc2c1C(=O)N(C1CCC(=O)N(CCO)C1=O)C2=O (stereo not shown)", "MEASUREMENT": 27.1}
{"COMPOUND": "COCCN1C(=O)CCC(N2C(=O)c3cccc(F)c3C2=O)C1=O (stereo not shown)", "MEASUREMENT": 28.2}

* * *

System: ICR mice
Experiment: Acute toxicity experiment of single oral administration in mice
Format: in vivo
Conditions: Day 4; male; 1000 mg/Kg single oral dose
RECORDED_METRIC: Daily Body Weight of Tested Male Mice (Mean ± SD) (g)

{"COMPOUND": "COCCN1C(=O)CCC(N2C(=O)c3cccc(C)c3C2=O)C1=O (centres unmarked)", "MEASUREMENT": 25.2}
{"COMPOUND": "CNc1cccc2c1C(=O)N(C1CCC(=O)N(CCOC)C1=O)C2=O (centres unmarked)", "MEASUREMENT": 24.7}
{"COMPOUND": "COCCCCN1C(=O)CCC(N2C(=O)c3cccc(N)c3C2=O)C1=O (centres unmarked)", "MEASUREMENT": 25.2}
{"COMPOUND": "Nc1cccc2c1C(=O)N(C1CCC(=O)N(CCO)C1=O)C2=O (centres unmarked)", "MEASUREMENT": 25.5}
{"COMPOUND": "COCCN1C(=O)CCC(N2C(=O)c3cccc(O)c3C2=O)C1=O (centres unmarked)", "MEASUREMENT": 24.5}

* * *

Tested on: DSS-Induced inflammatory Bowel Disease Models in Mice
Experiment: DSS-induced inflammatory bowel disease model in mice (Biological Example 5, 1.3% DSS)
Type: in vivo, C57BL/6 mice
Conditions: Mus musculus, po; 30 mg/Kg i.g. Q.D; 1.3% DSS days 0-5; read-out: Inhibitory Rate of Colonic Reduction
Experimental: 40 healthy female C57BL/6 mice having weight of 16-19 g were randomly divided into 4 groups in accordance with weight. There were 10 mice in each group (see Table 6 below). The first day of the experiment was recorded as Day 0. The administration regimen and induction regimen were detailed in Table 6. The change in weight of experimental animals was recorded every day. […] Samples of animal colonic tissues were obtained to measure the length. […]
RECORDED_METRIC: inhibition in vivo at 30 mg/kg (%)

{"MOLECULE": "COCCN1C(=O)CCC(N2C(=O)c3ccc(F)cc3C2=O)C1=O (stereo not drawn)", "MEASUREMENT": 100}
{"MOLECULE": "COCCN1C(=O)CCC(N2C(=O)c3cccc(N)c3C2=O)C1=O (stereo not drawn)", "MEASUREMENT": 81.8}
{"MOLECULE": "COCCCCN1C(=O)CCC(N2C(=O)c3cccc(N)c3C2=O)C1=O (stereo not drawn)", "MEASUREMENT": 100}
{"MOLECULE": "COCCCN1C(=O)CCC(N2C(=O)c3cccc(F)c3C2=O)C1=O (stereo not drawn)", "MEASUREMENT": 109}
{"MOLECULE": "COCCN1C(=O)CCC(N2C(=O)c3cccc(O)c3C2=O)C1=O (stereo not drawn)", "MEASUREMENT": 100}
{"MOLECULE": "COCCN1C(=O)CCC(N2C(=O)c3ccc(OC)c(N)c3C2=O)C1=O (stereo not drawn)", "MEASUREMENT": 81.8}
